Recorded Ki values for a group of compounds are listed next.
Target under test: human adenosine A2A receptor (Homo sapiens, UniProt P29274)
Construct: expressed in transfected cells; host or cells: CHO cells, semliki forest virus expression system; washed membranes
Sequence (P29274 whole entry): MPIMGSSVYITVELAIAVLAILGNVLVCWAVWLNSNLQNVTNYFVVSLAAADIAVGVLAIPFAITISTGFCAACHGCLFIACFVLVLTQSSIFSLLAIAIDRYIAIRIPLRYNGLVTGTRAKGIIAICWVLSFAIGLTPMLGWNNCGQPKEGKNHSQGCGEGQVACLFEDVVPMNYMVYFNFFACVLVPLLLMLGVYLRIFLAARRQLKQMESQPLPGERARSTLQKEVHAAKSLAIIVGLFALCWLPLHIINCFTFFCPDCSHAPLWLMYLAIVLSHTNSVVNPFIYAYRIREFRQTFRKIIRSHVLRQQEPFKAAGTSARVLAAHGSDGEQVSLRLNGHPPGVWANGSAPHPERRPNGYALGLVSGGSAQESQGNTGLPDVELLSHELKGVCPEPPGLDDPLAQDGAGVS
Protocol notes: [3H]-SCH-58261 binding assay, human adenosine A2A receptor (CHO cell membranes, SPA)
Recorded conditions: [3H]-SCH-58261 displacement; list of examples 10-108; read-out: hA2a Ki
Measured metric: Ki

compound="CCN(CCOC)C(=O)c1cc(N)c2nc(-c3ccc(C)s3)nn2c1 [Example 99]" observed="238 nM"
compound="Nc1cc(C(=O)N2CC=CCC2)cn2nc(-c3ccccc3)nc12 [Example 80]" observed="289 nM"
compound="Cc1ccc(-c2nc3c(N)cc(C(=O)N(C)CC(=O)N(C)C)cn3n2)s1 [Example 98]" observed="220 nM"
